- measurement-context: 313.15 K; 100 kPa; Liquid
Numbers after ± are expanded uncertainties.
readout-label: mass density

1. CCn1cc[n+](C)c1.COS(=O)(=O)[O-] [1-ethyl-3-methylimidazolium methylsulfate]: 1276.6 ± 2.4 kg/m3
2. CCCCCCCCCCn1cc[n+](C)c1.O=S(=O)([N-]S(=O)(=O)C(F)(F)F)C(F)(F)F: 1265.3 ± 2.4 kg/m3
3. CCn1cc[n+](CC)c1.O=S(=O)([N-]S(=O)(=O)C(F)(F)F)C(F)(F)F [1,3-diethylimidazolium bis[(trifluoromethyl)sulfonyl]imide]: 1447.3 ± 2.7 kg/m3
4. CCOS(=O)(=O)[O-].CCn1cc[n+](C)c1 [1-ethyl-3-methylimidazolium ethyl sulfate]: 1233.1 ± 2.3 kg/m3
